# System: KM12
# test.summary: NCI tumour cell line growth inhibition, 48 h
Calls of active or inactive are those of the source. No stated cut-off is given here; in the data, active = GI50 up to about 1.1 µM and inactive = higher.
Quick reference for GI50 among some compounds

Here is how some compounds turned out for GI50.
| compound | GI50 |
| --- | --- |
| c1ccc2[nH]c(CNc3ccc(C4C[Se]N=N4)cc3)nc2c1 (configuration not stated) | 26.4 µM (inactive) |
| O=C(O)CCc1ccc2c(c1)C(=O)CC2 | > 100 µM (inactive) |
| CSc1nc(NC2OC(COC(C)=O)C(OC(C)=O)C(OC(C)=O)C2OC(C)=O)c2c(n1)OCC2=O (configuration not stated) | > 100 µM (inactive) |
| COc1ccc(-n2c(C)nc3ccc(/N=C/c4ccccc4)cc3c2=O)cc1 | > 100 µM (inactive) |
| N=C(N)N/N=C/c1cnn(C(=N)N)c1 | 64.1 µM (inactive) |

So what's the measured GI50 for this one? CC1(C)COC2(OC1)C1=NS(=O)(=O)CC13CCC2C3(C)C (configuration not stated)
> 100 µM (inactive)

So what's the measured GI50 for this one? COc1ccc(NC(=S)Nc2c(C)n(C)n(-c3ccccc3)c2=O)cc1
> 100 µM (inactive)

So what's the measured GI50 for this one? CC(C)C(O)(C(C)C)C(C)C
> 100 µM (inactive)

----------
# System: CAKI-1
# test.summary: NCI tumour cell line growth inhibition, 48 h
Active and inactive are the calls of the source. Cut-off read from the data, not from the text of the source: active = GI50 up to about 1.1 µM and inactive = higher.
reported.metric: GI50

| compound | reported.metric | result |
| --- | --- | --- |
| Cc1ccc(/N=N/C(C2=NC(=O)CS2)c2nc3ccccc3[nH]2)cc1 (stereo not given) | GI50 | > 100 µM (inactive) |
| O=c1ccn(-c2ccccn2)c(=O)n1-c1ccccn1 | GI50 | > 100 µM (inactive) |
| COc1ccc(C2=C(N)c3cc(OC)ccc3C2=O)cc1 | GI50 | > 100 µM (inactive) |
| COc1cc2c(cc1OC)C1c3ccccc3CCCN1CC2 (stereo not given) | GI50 | > 100 µM (inactive) |
| O=[N+]([O-])C1(CO)COC2(OC1)c1ccccc1-c1ccccc12 | GI50 | > 100 µM (inactive) |

So what's the measured GI50 for this one? OCC[N+]12CCCN1CCC2
> 100 µM (inactive)

So what's the measured GI50 for this one? O=c1[nH]nc2c3n[nH]c(=O)n3c3ccccc3n12
> 100 µM (inactive)

So what's the measured GI50 for this one? O=c1[nH]nc(Cc2ccccc2)n1CCO
> 100 µM (inactive)

So what's the measured GI50 for this one? N#C/C(=C\c1cccc(Br)c1)c1nc2ccccc2c(=O)[nH]1
> 100 µM (inactive)

So what's the measured GI50 for this one? S=C(Nc1c2c(nc3ccccc13)CCCC2)Nc1c2c(nc3ccccc13)CCCC2
> 100 µM (inactive)

So what's the measured GI50 for this one? Cc1ccc2sc3ccc(N)cc3c(=O)c2c1
30.7 µM (inactive)

So what's the measured GI50 for this one? COc1cc2c(cc1C1=NC(C)(C)CO1)OCO2
> 100 µM (inactive)

So what's the measured GI50 for this one? COC(=O)/C(=C/CC(N=C(c1ccccc1)c1ccccc1)C(=O)OC)N=C(c1ccccc1)c1ccccc1 (stereo not given)
> 100 µM (inactive)
